// data source = patent US9493396B2

Each entry below carries its reported EC50.
molecular target: Calcium sensing receptor (hCaSR) (Homo sapiens); assay: In-vitro assay of calcimimetics through modulation of calcium sensing receptor (intracellular calcium increase, FLIPR); details: stably transfected HEK293 cells expressing hCaSR; Fluo4NW dye; 0.3 mM CaCl2; 8-point assay; read-out: EC50 in range
Where a name gives a salt, the structure may show the parent alone.

{"MOLECULE": "CC(N[C@H](C)c1cccc2ccccc12)c1cc(-c2ccc(C(F)(F)F)cc2)c2ccccc2c1 (single isomer, unassigned) [Example 9a, hydrochloride]", "EC50": "20 to 50 nM"}
{"MOLECULE": "CC(C)OC(=O)CCc1cc(F)cc(-c2cc(C(C)N[C@H](C)c3cccc(Cl)c3)cc3ccccc23)c1 (mixture of isomers) [Example 153, hydrochloride]", "EC50": "20 to 50 nM"}
{"MOLECULE": "COc1cccc([C@@H](C)NC(C)c2cc(-c3cc(C)cc(C(=O)O)c3)c3ccccc3c2)c1 (stereo partly drawn) [Example 125, hydrochloride]", "EC50": "50 to 400 nM"}
{"MOLECULE": "CCOc1cccc([C@@H](C)NCc2cc(-c3ccc(C)c(C(=O)O)c3)c3ccccc3c2)c1 [Example 91, hydrochloride]", "EC50": "< 20 nM"}

[ask] Using the record for Cc1ccc(-c2cc(CN[C@H](C)c3cccc(OCC(F)F)c3)cc3ccccc23)cc1C(=O)O [Example 95, hydrochloride] , report its EC50.
[reply] 50 to 400 nM

[ask] Using the record for CCOc1cccc([C@@H](C)NC(C)c2cc(-c3ccc(C)c(CCC(=O)O)c3)c3ccccc3c2)c1 (stereo partly drawn) [Example 157, hydrochloride] , report its EC50.
[reply] < 20 nM

###

Each entry below carries its reported EC50.
Biological target: Calcium sensing receptor (hCaSR) (Homo sapiens)
Sequence (P41180 20-1078): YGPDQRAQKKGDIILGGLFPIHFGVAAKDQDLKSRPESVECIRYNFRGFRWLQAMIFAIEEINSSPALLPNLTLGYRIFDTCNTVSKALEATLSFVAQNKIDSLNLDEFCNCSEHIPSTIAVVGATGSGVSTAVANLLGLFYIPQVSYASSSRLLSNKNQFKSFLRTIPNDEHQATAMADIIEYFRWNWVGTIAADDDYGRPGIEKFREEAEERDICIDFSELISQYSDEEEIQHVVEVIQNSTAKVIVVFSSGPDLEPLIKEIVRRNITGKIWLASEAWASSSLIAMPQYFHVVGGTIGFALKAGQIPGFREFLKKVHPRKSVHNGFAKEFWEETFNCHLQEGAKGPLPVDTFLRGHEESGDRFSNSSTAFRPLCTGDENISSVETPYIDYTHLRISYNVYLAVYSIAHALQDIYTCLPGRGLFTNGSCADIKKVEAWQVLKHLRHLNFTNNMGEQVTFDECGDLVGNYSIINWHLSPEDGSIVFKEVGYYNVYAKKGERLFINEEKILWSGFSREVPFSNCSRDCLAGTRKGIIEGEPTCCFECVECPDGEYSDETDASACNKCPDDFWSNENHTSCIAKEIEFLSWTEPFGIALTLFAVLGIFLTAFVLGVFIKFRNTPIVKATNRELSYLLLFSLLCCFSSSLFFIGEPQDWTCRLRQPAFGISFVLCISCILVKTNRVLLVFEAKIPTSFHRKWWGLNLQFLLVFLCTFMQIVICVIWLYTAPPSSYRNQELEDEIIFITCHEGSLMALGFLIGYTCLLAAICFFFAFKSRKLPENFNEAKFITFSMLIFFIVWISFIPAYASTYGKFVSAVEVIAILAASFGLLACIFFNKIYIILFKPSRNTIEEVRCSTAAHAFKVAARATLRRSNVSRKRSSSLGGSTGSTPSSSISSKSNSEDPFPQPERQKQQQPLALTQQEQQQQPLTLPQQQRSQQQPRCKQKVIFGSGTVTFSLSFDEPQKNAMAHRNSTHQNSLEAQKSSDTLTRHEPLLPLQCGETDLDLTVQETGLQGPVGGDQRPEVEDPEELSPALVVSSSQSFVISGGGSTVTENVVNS
Test: In-vitro assay of calcimimetics through modulation of calcium sensing receptor (intracellular calcium increase, FLIPR)
Conditions: stably transfected HEK293 cells expressing hCaSR; Fluo4NW dye; 0.3 mM CaCl2; 8-point assay; read-out: EC50 in range
Where a name gives a salt, the structure may show the parent alone.

[ask] Identify the measured EC50 of CCOc1cccc([C@@H](C)NC(C)c2cc(-c3ccc(C)c(C(=O)O)c3)c3ccccc3c2)c1 (stereo partly drawn) [Example 143, hydrochloride] for Calcium sensing receptor (hCaSR) (Homo sapiens).
[reply] 0.02 to 0.05 µM

[ask] Identify the measured EC50 of C[C@@H](NCc1cc(-c2cccc(C(F)(F)F)c2)c2ccccc2c1)c1cccc2ccccc12 [Example 3, hydrochloride] for Calcium sensing receptor (hCaSR) (Homo sapiens).
[reply] < 0.02 µM

[ask] Identify the measured EC50 of COc1cccc([C@@H](C)NC(C)c2cc(-c3ccc(C(F)(F)F)c(C(=O)O)c3)c3ccccc3c2)c1 (stereo partly drawn) [Example 128, hydrochloride] for Calcium sensing receptor (hCaSR) (Homo sapiens).
[reply] 0.05 to 0.4 µM
